Test system: SN12C renal
Assay: NCI-60 one-dose screen, 48 h
Conditions: 10 µM unless noted
Compounds without any hit were thinned out: in the full panel of roughly 83,000, 20% have a hit. Active and inactive are the calls of the source. How the source made its calls: active means growth percent below 10; inactive means the rest.
Classes used: active, inactive

Cc1cnc(-c2ccc(-c3ccc(NC(=O)Nc4c(F)cc(F)cc4F)cc3F)c3c2C(=O)NC3)[nH]1 | active
COc1ccccc1-c1ccc2nc(NC(=O)Nc3cc(C(F)(F)F)cc(C(F)(F)F)c3)sc2c1 | inactive
COc1cc([C@H](C)c2ccc3ccccc3c2)cc(OC)c1OC | inactive
c1ccc(-c2n(Cc3ccc4ccccc4n3)cc[n+]2Cc2ccc3ccccc3n2)cc1 | inactive
C#C[C@@]1(O)[C@@H](CO)O[C@@H](n2cc(F)c3c(N)ncnc32)[C@@H]1O | active
O=C1C(Cl)=C(NCCCN(CCCNC2=C(Cl)C(=O)c3ccccc3C2=O)C2=C(Cl)C(=O)c3ccccc3C2=O)C(=O)c2ccccc21 | active
O=C(/C(=C\c1c(-c2ccccc2)[nH]c2ccccc12)S(=O)(=O)c1ccccc1)c1ccccc1 | inactive
O=[N+]([O-])c1ccc(N=Nc2c(O)c(N=Nc3cc([N+](=O)[O-])cc([N+](=O)[O-])c3O)cc(N=Nc3cc(S(=O)(=O)O)cc4cc(S(=O)(=O)O)cc(O)c34)c2O)cc1 | inactive

* * *

System: NCI-H522 lung
Experiment: NCI-60 one-dose screen, 48 h
Conditions: 10 µM unless noted
About 83,000 compounds went through this panel and 20% of them were active in at least one assay; those are over-represented in the sample as a whole. The source made the active and inactive calls. Rule for the calls: active = growth percent below 10; inactive = the rest.
Classes used: active, inactive

CC(=O)c1ccc(NC(=O)CSc2nnc(-c3cc(-c4ccc(Cl)cc4)nc4ccccc34)o2)cc1 | inactive
COc1ccc(Cl)c([N+](=O)[O-])c1 | inactive
C[C@H]1[C@H](C)CC[C@]2(C(=O)OCCCC[P+](c3ccccc3)(c3ccccc3)c3ccccc3)CC[C@]3(C)C(=CC[C@@H]4[C@@]5(C)CC[C@H](OC(=O)C(Cl)Cl)C(C)(C)[C@@H]5CC[C@]43C)[C@H]12 | active
C(=C\c1cn(-c2ccccc2)nc1-c1ccccc1)/c1nnc(-c2c[nH]c3ccccc23)o1 | inactive
CCOC(=O)NC(Cc1ccccc1)c1ccccc1 (stereo unspecified) | inactive
Cc1nc2sc(C(=O)Nc3ccccc3Cl)c(N)c2cc1C(C)O (stereo unspecified) | inactive

* * *

System: KM12 colon
Assay: NCI-60 one-dose screen, 48 h (100 = growth as untreated, 0 = no growth, -100 = all killed)
Conditions: 10 µM unless noted
This is part of a sample that, as a whole, favours compounds with a hit. Of some 83,000 tested, about 20% had one in any assay.
value_type: growth (%)

Cc1nnc(/N=C2\NC(=O)/C(=C/c3ccc(N(C)C)cc3)S2)s1 | 46.1
C=C1C(=O)O[C@H]2[C@H]1CC/C(COC(=O)c1c[nH]c3ccccc13)=C\CC[C@@]1(C)O[C@@H]21 | -47.4
Nc1c(C(=O)Nc2ccccc2Cl)sc2nc3c(cc12)CN(Cc1ccccc1)CC3 | 96.1
Oc1c(CCl)cc(Cl)cc1Cc1cc(Cl)cc(Cc2cc(Cl)cc(CCl)c2O)c1O | 23.2
COc1ccc2c(c1)C1(C(=O)N2)C(C#N)=C(c2ccccc2)Nc2c1c(-c1ccccc1)nn2-c1ccccc1 (configuration not stated) | 39.7
C=C(C)[C@@H]1CC[C@]2(C(=O)O)CC[C@]3(C)[C@H](CC[C@@H]4[C@@]5(C)C[C@@H](CC#Cc6ccc(Cl)cc6)C(=O)C(C)(C)[C@@H]5CC[C@]43C)[C@@H]12 | 26.3
Nc1c(C(=O)Nc2ccccn2)sc2nc3c(cc12)C(=O)CCC3 | 16.3
C=C1C(=O)O[C@H]2[C@H]1CCC(/C=N/c1ncc(Br)cc1N)=C\CC[C@@]1(C)O[C@@H]21 | 53.9
COc1cc(C2=NN(c3ccccc3)C(c3cccc(Nc4ccnc5cc(C(F)(F)F)ccc45)c3)C2)cc(OC)c1OC (configuration not stated) | 88.1
COc1ccc([C@H]2[C@@H](F)C(=O)N2c2cc(OC)c(OC)c(OC)c2)cc1F | 10.7
CC[C@]12C=CCN3CC[C@@]4(c5ccc(OC)cc5N(C)[C@H]4[C@@](O)(C(=O)OC)[C@@H]1OC(=O)CCC(=O)O[C@H]1CC[C@H]4[C@@H]5CC[C@H]6CC(=O)CC[C@]6(C)[C@H]5CC[C@]14C)[C@@H]32 | 22.4
Oc1ccccc1-c1nc2c3ccccc3c3ccccc3c2o1 | 93.3
O=C1CCC23OC(c4ccccc4N12)C(O)C(O)C3O (configuration not stated) | 104
CCOC(=O)C(=Cc1c(-c2ccccc2)[nH]c2ccccc12)C(=O)OCC | 24.1
Nc1ccc(C2=NN(C(=O)c3cc(-c4ccc(Cl)cc4)nc4ccccc34)C(c3ccc(Cl)cc3)C2)cc1 (configuration not stated) | 27.5
CC(C)CSc1nc(Nc2ccccc2)c(C#N)c(-c2ccc(F)cc2)n1 | 73.2
O=C1C(=O)c2c(nc3ccc(C(F)(F)F)cn23)-c2ccccc21 | -61.7
C=CCn1c(SCC(=O)Nc2ccc(C(=O)/C=C/c3cc(OC)c(OC)c(OC)c3)cc2)nnc1-c1ccccc1 | 54.4
COc1cc([C@H](C)c2ccc3ccccc3c2)cc(OC)c1OC | 19.6
Cn1cc(-c2ccc3c(c2)ncn3-c2ccc(CC(=O)Nc3cc(C(C)(C)C)on3)cc2)cn1 | 16.3
C/C(=N/Nc1nc2ccccc2n1C)c1ccccn1 | 19.7
CN(C)CCCn1c2c(c3cc(-c4ccco4)ccc3c1=O)C(=O)c1ccccc1-2 | 44.4
CNCc1cccc2c1OCCOCCOCCN(CCN1CCOCC1)S(=O)(=O)c1ccc(cc1)-c1cnc(N)c(n1)C(=O)N2 | 37.5
Cc1cccc(C)c1Nc1nnc(-c2ccc(F)cc2)o1 | 89.2
Nc1c(C(=O)Nc2cccc3ccccc23)sc2nc3c(cc12)CCCCC3 | 22.8
O=C(NCc1ccccc1)c1ccc2c(c1)NC(=O)[C@@H]1CCCN21 | 84
O=c1cc(/C=N\Nc2nc(-c3ccc(Cl)cc3Cl)cs2)c2cc(Cl)ccc2o1 | 94.3
COc1ccc(N(C)c2nc(Cl)nc3ccn(C)c23)cc1 | 5.77
O=c1[nH]c(-c2cccc(F)c2)cc2cc(F)ccc12 | 23.6
C[C@@H]1C(=O)[C@@H]2C[C@@H](O)[C@@H](O)C[C@]2(C)[C@H]2CC[C@@]3(C)C(=C12)CC[C@@H]3[C@@](C)(O)[C@H](O)CCC(C)(C)O | 114
COc1ccc(/C=C(/C(=O)N2CCCC2)c2cc(OC)c(OC)c(OC)c2)cc1 | 31.9
COc1ccc(/C=C/C(=O)/C=C(/C=C/c2ccc(OC)c(OC)c2)OB(F)F)cc1OC | 36.1
OCCNc1nc(NCCO)nc(Nc2ccc(C3=NN(c4ccc(Cl)cc4)C(c4ccc(Cl)cc4)C3)cc2)n1 (configuration not stated) | 49.8
Cc1nccc2c3ccc(OCc4cn(-c5ccc(Br)cc5)nn4)cc3n(CC(C)C)c12 | 44.8
CC(=O)c1ccc(NC(=O)CSc2nnc(-c3cc(-c4ccc(Cl)cc4)nc4ccccc34)o2)cc1 | 89.3
COc1ccc(Sc2[nH]c(C(C)=O)c3ccccc23)cc1 | 37
O=[N+]([O-])c1ccc(Oc2ccc(-c3ccccc3)cc2)cc1 | 89.5

* * *

System: BT-549 breast
Assay: NCI-60 one-dose screen, 48 h (100 = growth as untreated, 0 = no growth, -100 = all killed)
Details: 10 µM unless noted
The panel holds about 83,000 compounds, 20% with a hit somewhere; the sample as a whole holds those more often.
Lab note: compare growth with 50%, writing TRUE if less and FALSE if equal or more.

CCOC(=O)c1c(C)nc2c(c1N)CC(=O)N2CCc1ccccc1 | TRUE
CC(=O)c1c(OCC#N)ccc2c(C)cc(=O)oc12 | FALSE
CN(C)[C@@H]1C(=O)C(C(N)=O)=C(O)[C@@]2(O)C(=O)C3=C(O)c4c(O)cc(CN5CCc6ccccc6C5)c(Cl)c4C[C@H]3C[C@@H]12 | TRUE
Cc1nc2sc(C(=O)Nc3cccc4ccccc34)c(N)c2cc1C(C)O (centres undefined) | TRUE
CN(C)CCCn1c2c(c3cc(-c4ccco4)ccc3c1=O)C(=O)c1ccccc1-2 | FALSE
COc1ccccc1Nc1nnc(-c2ccc(Cl)cc2)o1 | FALSE
COC(=O)c1oc2c(C(=O)/C=C/c3ccc(OC)cc3)c(OCCCN3CCCCC3)ccc2c1C | TRUE
COc1cc2c(Nc3ccc(NC(=O)Nc4ccc(Cl)c(C(F)(F)F)c4)c(Cl)c3)ncnc2cc1OCCCN1CCN(C)CC1 | TRUE

* * *

Test system: UO-31 renal
Assay: NCI-60 one-dose screen, 48 h (100 = growth as untreated, 0 = no growth, -100 = all killed)
Conditions: 10 µM unless noted
The panel holds about 83,000 compounds, 20% with a hit somewhere; the sample as a whole holds those more often.
Lab note: compare growth with 60%, writing satisfied if less and not satisfied if equal or more.

COc1cc(/C=N/Nc2nc(-c3ccc(F)cc3)c(C#N)c(N3CCOCC3)n2)ccc1O | not satisfied
CCOC(=O)/C=C1\SC(=Nc2ccc(C#N)cc2)N(CCN2C(=O)/C(=C/C(=O)OCC)SC2=Nc2ccc(C#N)cc2)C1=O | satisfied
Cc1cc(Nc2nc(SCc3ccc(C(=O)Nc4ccc(F)cc4N)cc3)nn3cccc23)n[nH]1 | satisfied
CC(=O)OCC1SC(OC(C)=O)C(NC(=O)/C=C/CCl)C(OC(C)=O)C1OC(C)=O (centres undefined) | not satisfied
Cc1cc(C)c2nc(Nc3nc(C)c(C)c(=O)[nH]3)nc(C)c2c1 | satisfied
O=C1Nc2ccc(Cl)cc2/C1=N/c1nc(-c2ccc(Cl)cc2)cs1 | satisfied
CC(C)(C#N)c1cc(F)cc(C(=O)Nc2cc(Nc3ncccc3-c3ncnc4nc[nH]c34)ccc2F)c1 | satisfied
COc1cc(NC(=O)Nc2cnc(Nc3ccc(N4CCOCC4)cc3)nc2Oc2ccc(C(F)(F)F)cc2)cc(OC)c1 | not satisfied
Cc1c(O)c(=O)ccn1-c1nc2ccccc2s1 | satisfied

Origin of values: PubChem BioAssay (NCI)
